target: His6-AspH315–758 (human aspartate/asparagine-β-hydroxylase, AspH) (Homo sapiens, UniProt Q12797); construct: N-Terminally His6-tagged human AspH315–758 (His6-AspH315–758) was produced in E. coli BL21 (DE3) cells; made in house; host or cells: E. coli BL21 (DE3), pET-28a(+) vector; assay: SPE-MS AspH inhibition assay (LOPAC screen at fixed 20 μM and IC50 dose-response), hydroxylation of cyclic peptide hFX-CP101–119; format: biochemical; details: plate 5 (Pfitzer), test compounds at fixed 20 μM; mean conversion DMSO 32.88
Sequence (Q12797 315-758): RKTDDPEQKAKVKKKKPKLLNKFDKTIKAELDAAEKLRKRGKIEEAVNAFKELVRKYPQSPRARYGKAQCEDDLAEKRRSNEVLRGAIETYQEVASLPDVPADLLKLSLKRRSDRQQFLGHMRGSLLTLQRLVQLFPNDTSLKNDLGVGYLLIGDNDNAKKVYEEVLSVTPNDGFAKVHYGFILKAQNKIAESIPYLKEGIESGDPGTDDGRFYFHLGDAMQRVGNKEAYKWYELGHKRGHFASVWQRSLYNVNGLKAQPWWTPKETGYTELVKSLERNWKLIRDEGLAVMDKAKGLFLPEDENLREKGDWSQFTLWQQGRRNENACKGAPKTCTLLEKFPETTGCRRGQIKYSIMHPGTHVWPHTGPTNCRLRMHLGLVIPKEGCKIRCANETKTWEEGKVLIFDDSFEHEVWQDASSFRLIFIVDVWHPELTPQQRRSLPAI
Starred links: 1 amine or outer side, 2 acyl side, 3 side chain; linkers in the order of their positions; H or OH if unused. Non-standard residues stand in square brackets, D forms with d. Residues, ends and D or L forms follow the SMILES beside them. X1 = NCCCC[C@H](N)CN([C@@H](CCCCN)C(=O)[*:2])[*:1]; Tle = CC(C)(C)[C@H](N)C(=O)O
Measure Name: Plate 5 (% conversion) (%)
# unit: % | format: bare number

Plate 5 (% conversion) lookup needed for O=C(NOCC1CC1)c1ccc(F)c(F)c1Nc1ccc(I)cc1Cl , thanks.
26.46

Again, but for CCOC(=O)[C@H](CC(C)C)NC(=O)[C@@H](NC(=O)[C@H](Cc1c[nH]c2ccccc12)NC(=O)[C@@H]1CCCN1C(=O)[C@H](CCCCN)NC[C@@H](N)CCCCN)C(C)(C)C [PD-149163] (H-[X1]PW[Tle]L-OEt)
42.01

Now, please, on to the next compound.
Requested read-out: Plate 5 (% conversion). Entry: Cn1c(=O)c(-c2c(Cl)cccc2Cl)cc2cnc(Nc3ccc(N4CCOCC4)cc3)nc21
16.57
